All figures here come from PubChem BioAssay.

Test: small-molecule binders of probe aNOTCH2, primary screen, biochemical, small-molecule microarray, 635/667 nm fluorescence (AID 1121);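 note: score merges feature fluorescence read at 667 nm with its signal to noise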
Details: higher = more signal
A collection of compounds and their measured composite z-score
QUANTITY MEASURED: composite z-score

compound=CC(C)(C)OC(=O)CC[C@@]1(C(=O)O)N=C(c2ccc(OCCCO)cc2)O[C@@H]1c1ccccc1N=[N+]=[N-] quantity_measured="composite z-score" observed_measurement=0.0309
compound="CCCCC(CC)C(O)C1C=CC2C(=O)N(c3ccccc3)C(=O)C2N1Nc1ccccc1 (centres undefined)" quantity_measured="composite z-score" observed_measurement=-0.122
compound=CC(C)N1C(=O)[C@@]2(c3ccc([N+](=O)[O-])cc3)CC(=O)N(CC34CC5CC(CC(C5)C3)C4)[C@@H]2c2ccc(CO)cc21 quantity_measured="composite z-score" observed_measurement=-0.237
compound="CC(C)=CCCC(C)=CC(O)C1C=CC2C(=O)N(c3ccccc3)C(=O)C2N1Nc1ccccc1 (centres undefined)" quantity_measured="composite z-score" observed_measurement=0.251
compound=CCOC(=O)C1=C[C@@H](C(C)C)N(S(=O)(=O)c2ccc(C)cc2)[C@H]1c1ccc(C(C)C)cc1 quantity_measured="composite z-score" observed_measurement=-0.0148
compound=COC(=O)[C@@]1(Cc2ccccc2)[C@H]2c3cc(C(=O)N4CCCC4)n(Cc4ccc(C)o4)c3C[C@H]2CN1C(=O)c1ccccc1 quantity_measured="composite z-score" observed_measurement=0.0263
compound=CC1=C2[C@@H](CCc3ccccc3)OB(O)C[C@@H]2n2c(=O)n(-c3ccccc3)c(=O)n2C1 quantity_measured="composite z-score" observed_measurement=-0.11
compound=[N-]=[N+]=Nc1ccccc1C[C@]1(C(=O)NCCN2CCOCC2)N=C(c2ccc(OCCCO)cc2)O[C@H]1c1ccccc1 quantity_measured="composite z-score" observed_measurement=-0.0849
compound=COC(=O)[C@@]1(Cc2ccccc2)[C@H]2c3cc(C(=O)N4CCCC4)n(C)c3C[C@H]2CN1C(=O)c1ccccc1 quantity_measured="composite z-score" observed_measurement=-0.138

---

Assay: FRG1 promoter luciferase signal modulators, primary screen, FRG1 inhibition for FSHD, cell-based, C2C12 myotubes, firefly/Renilla luciferase, luminescence (AID 1084)
Details: higher = more signal, called active from +8 up or from −8 down
# label = true (1) if z-score >= -0.8 else false (0)

compound="[N-]=[N+]=NCc1ccccc1C[C@@]1(C(=O)NCC(O)CO)N=C(c2ccc(OCCCO)cc2)O[C@@H]1c1ccccc1CN=[N+]=[N-] (stereo partly specified)" label_class="true (1)"
compound=CC(C)NC(=O)[C@@H]1c2ccccc2C(=O)N(Cc2ccccc2)[C@H]1c1ccc(CO)cc1 label_class="false (0)"
compound=C=CCOC(=O)[C@@H]1[C@H]2C(=O)O[C@H](c3ccccc3)[C@H](c3ccccc3)N2[C@H](c2ccc(OCCOC(=O)[C@@H]3C[C@@H]4C(=O)N[C@@H](Cc5ccccc5)C(=O)N4[C@@H]3c3cccc(OCCO)c3)cc2)[C@@]12C(=O)Nc1ccc(I)cc12 label_class="true (1)"
compound=COc1ccc([Si](C)(C)[C@@H]2[C@@H](CCn3cc([C@H](O)c4ccccc4)nn3)O[C@]3(C(=O)N(Cc4ccc(N5C(=O)c6cccc7cccc5c67)cc4)c4ccccc43)[C@H]2C)cc1 label_class="true (1)"
compound=COCCOC(=O)N1C(=O)[C@@]2(c3cc(C#CCNC(N)=O)ccc31)[C@H](c1ccc(OCCO)cc1)N1[C@H](c3ccccc3)[C@H](c3ccccc3)OC(=O)[C@H]1[C@@H]2C(=O)N1CCc2cc(OC)c(OC)cc2C1 label_class="true (1)"
